// data source = ChEMBL document CHEMBL1132730

Recorded Ki values (UniProt P14416) are given below.
Sequence (P14416 whole entry): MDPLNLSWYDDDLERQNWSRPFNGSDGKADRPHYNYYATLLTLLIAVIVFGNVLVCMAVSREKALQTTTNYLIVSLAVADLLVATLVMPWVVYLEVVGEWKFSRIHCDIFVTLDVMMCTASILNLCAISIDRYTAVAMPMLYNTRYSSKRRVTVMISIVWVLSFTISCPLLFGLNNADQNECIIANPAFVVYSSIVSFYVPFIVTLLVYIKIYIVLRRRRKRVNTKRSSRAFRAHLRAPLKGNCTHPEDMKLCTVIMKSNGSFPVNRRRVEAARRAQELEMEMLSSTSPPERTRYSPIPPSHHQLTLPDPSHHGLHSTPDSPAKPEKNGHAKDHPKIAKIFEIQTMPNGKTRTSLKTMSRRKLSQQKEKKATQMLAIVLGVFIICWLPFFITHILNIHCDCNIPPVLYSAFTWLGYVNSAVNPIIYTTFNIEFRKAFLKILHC

Prompt: Requested read-out Ki, target or system UniProt P14416, entry O=C1Nc2ccccc2CC1N1CCN(Cc2ccc(Cl)cc2)CC1 (stereo unspecified)
Completion: 1.37 µM

Prompt: I'm curious: which Ki was measured for CCN1C(=O)C(N2CCN(Cc3ccc(C)cc3)CC2)CCc2ccccc21 (stereo unspecified) tested on UniProt P14416?
Completion: > 1 µM

Prompt: Find the measured Ki: item CCN1C(=O)C(N2CCN(Cc3ccc(Cl)cc3)CC2)Cc2ccccc21 (stereo unspecified) , target or system UniProt P14416.
Completion: 0.021 µM

Prompt: // lookup Ki | system=UniProt P14416 | key= Cc1ccc(CN2CCN(C3CCc4ccccc4N(C)C3=O)CC2)cc1 (stereo unspecified)
Completion: > 1 µM

Prompt: What value of Ki on UniProt P14416 does CCN1C(=O)C(N2CCN(Cc3ccc(Cl)cc3)CC2)CCc2ccccc21 (stereo unspecified) have?
Completion: > 1 µM

Continuing:
Prompt: Kindly state the measured Ki obtained for Cc1ccc(CN2CCN(C3(C)C(=O)N(C)c4ccccc43)CC2)cc1 (stereo unspecified) with UniProt P14416.
Completion: > 1 µM

Prompt: // map O=C1Nc2ccccc2CCC1N1CCN(Cc2ccc(Cl)cc2)CC1 (stereo unspecified) to recorded Ki (system: UniProt P14416)
Completion: > 1 µM

Prompt: Could you share what Ki was measured for Cc1ccc(CN2CCN(C3C(=O)Nc4ccccc43)CC2)cc1 (stereo unspecified) , tested on UniProt P14416?
Completion: > 1 µM

Prompt: Hi! What's the reported Ki for Cc1ccc(CN2CCN(C3CCc4ccccc4NC3=O)CC2)cc1 (stereo unspecified) on UniProt P14416?
Completion: > 1 µM
